Target: hGPR40 (Homo sapiens, UniProt O14842)
Sequence (O14842 whole entry): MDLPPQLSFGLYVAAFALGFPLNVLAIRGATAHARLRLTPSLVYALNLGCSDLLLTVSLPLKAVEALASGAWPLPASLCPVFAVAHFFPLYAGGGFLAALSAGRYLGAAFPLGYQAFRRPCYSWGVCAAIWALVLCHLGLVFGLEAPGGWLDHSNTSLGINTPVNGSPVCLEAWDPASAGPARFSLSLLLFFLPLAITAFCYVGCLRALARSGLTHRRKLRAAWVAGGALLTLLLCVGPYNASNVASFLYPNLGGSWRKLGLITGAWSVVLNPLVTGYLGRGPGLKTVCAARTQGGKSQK
Protocol: FDSS-based intracellular calcium assay in cell lines expressing GPR40
Design: 3xFLAG; expressed in transfected cells
Measurement conditions: intracellular Ca2+ response, cells expressing GPR40, FDSS reader
Method: FDSS-Based Intracellular Calcium Assay Cell lines expressing GPR40 are generated using the pDEST-3×FLAG gene expression system and are cultured in culture medium comprising the following components: F12 (Gibco #11765), 10% lipid deprived fetal bovine serum, 250 μg/ml zeocin and 500 μg/ml G418. […] Run fluorescence/luminescence reader FDSS (Hamamatsu) to read intracellular Ca^2+ response.
Where a name gives a salt, the structure may show the parent alone.
I'd be grateful if you could share measured log10 EC50 for these entries.
// units: nM (pre-log); metric: EC50; scale: log10

Asked: Output log10 EC50 of CCOc1ccc(F)c(N2CCC(Oc3ccc(N4C[C@H](OCCCS(C)(=O)=O)[C@@H](C)[C@@H]4CC(=O)O)cc3)CC2)c1 [Example 16]
Given back: 2.99

Asked: Output log10 EC50 of COCCCO[C@H]1CN(c2ccc(OC3CCN(c4cc(OC)ncc4Cl)CC3C)cc2F)[C@H](CC(=O)O)[C@@H]1C (single isomer, unassigned) [Example 27]
Given back: 3.30

Asked: Output log10 EC50 of CCOc1ccc(F)c(N2CCC(Oc3ccc(N4C[C@H](OCCCOC)[C@@H](C)[C@@H]4CC(=O)O)cn3)C(C)C2)c1 (single isomer, unassigned) [Example 9, HCl]
Given back: 2.23

Asked: Output log10 EC50 of COCCOCO[C@H]1CN(c2ccc(OC3CCN(c4cc(OC)ncc4Cl)CC3C)cc2)[C@@H](CC(=O)O)[C@@H]1C (single isomer, unassigned) [Example 28]
Given back: 2.26

Asked: Output log10 EC50 of COCCCO[C@H]1CN(c2ccc(OC3CCN(c4cc(OC)ncc4Cl)CC3)nc2)[C@@H](CC(=O)O)[C@@H]1C [Example 6]
Given back: 2.30

Asked: Output log10 EC50 of COCCCO[C@H]1CN(c2ccc(OC3CCN(c4cc(OC)ncc4Cl)CC3)cc2)[C@@H](CC(=O)O)[C@@H]1C [Example 4]
Given back: 1.86

Asked: Output log10 EC50 of CCOc1ccc(F)c(N2CCC(Oc3ccc(N4C[C@H](OCCCOC)[C@@H](C)[C@@H]4CC(=O)O)cc3F)C(C)C2)c1 (single isomer, unassigned) [Example 20]
Given back: 2.04

Asked: Output log10 EC50 of COc1cc(N2CCC(Oc3ccc(N4C[C@H](OCCCC#N)[C@@H](C)[C@@H]4CC(=O)O)cc3)C(C)C2)c(Cl)cn1 (stereo partly drawn) [Example 32]
Given back: 2.28

Asked: Output log10 EC50 of COCCCO[C@H]1CN(c2ccc(OC3CCN(c4cc(OC)ncc4Cl)CC3CC(C)C)nc2)[C@@H](CC(=O)O)[C@@H]1C (single isomer, unassigned) [Example 18, Isomer 1]
Given back: 3.11

Asked: Output log10 EC50 of CCOc1ccc(F)c(N2CCC(Oc3ccc(N4C[C@H](OCCCOC)[C@@H](C)[C@@H]4CC(=O)O)cc3)CC2)c1 [Example 3, HCl]
Given back: 2.30

Asked: Output log10 EC50 of CCc1cc(N2CCC(Oc3ccc(N4C[C@H](OCCCOC)[C@@H](C)[C@@H]4CC(=O)O)cc3)CC2)c(Cl)cn1 [Example 8, HCl]
Given back: 3.04

Asked: Output log10 EC50 of COCCCO[C@H]1CN(c2ccc(OC3CCN(c4cc(OC)ncc4Cl)CC3CC(C)C)nc2)[C@@H](CC(=O)O)[C@@H]1C (single isomer, unassigned) [Example 18, Isomer 2]
Given back: 2.46
